Assay system: furin, P09958;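 also: purified furin at 1:10 enzyme:substrate in 50 mM HEPES pH 7.5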
Sequence (P09958 whole entry): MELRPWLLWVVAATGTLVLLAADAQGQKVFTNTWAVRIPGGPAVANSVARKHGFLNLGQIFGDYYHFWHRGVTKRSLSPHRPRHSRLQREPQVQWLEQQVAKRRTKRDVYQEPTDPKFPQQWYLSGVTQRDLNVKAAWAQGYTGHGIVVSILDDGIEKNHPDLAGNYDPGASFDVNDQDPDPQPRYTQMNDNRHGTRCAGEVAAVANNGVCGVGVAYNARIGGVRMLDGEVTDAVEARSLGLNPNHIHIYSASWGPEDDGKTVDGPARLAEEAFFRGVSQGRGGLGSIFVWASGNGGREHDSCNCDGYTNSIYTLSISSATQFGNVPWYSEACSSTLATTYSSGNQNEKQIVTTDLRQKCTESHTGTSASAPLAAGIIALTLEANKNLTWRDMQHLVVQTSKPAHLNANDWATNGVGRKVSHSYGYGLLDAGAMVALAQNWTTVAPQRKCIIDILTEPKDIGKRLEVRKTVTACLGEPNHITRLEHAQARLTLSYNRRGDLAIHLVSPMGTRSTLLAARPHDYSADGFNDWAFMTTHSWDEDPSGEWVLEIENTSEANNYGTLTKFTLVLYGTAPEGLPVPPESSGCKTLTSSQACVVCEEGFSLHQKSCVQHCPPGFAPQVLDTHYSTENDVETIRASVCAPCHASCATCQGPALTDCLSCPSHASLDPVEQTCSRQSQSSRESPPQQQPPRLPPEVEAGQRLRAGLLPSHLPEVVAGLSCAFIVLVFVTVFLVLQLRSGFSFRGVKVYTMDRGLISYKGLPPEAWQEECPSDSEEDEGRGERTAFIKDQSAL
Experiment notes: furin cleavage Z-score vs untreated control; higher = more cleavage, active = 3.5 or more, inactive = 1 or less, 8 variable residues between constant flanks
Condition description: 7.5 min
Some of the results follow. How many sequences the whole screen found active is unknown.
Quantity kind: furin cleavage Z-score

> print(dat)
                  item.sequence       assay.result
1   CADVVTSTWVAGNASASA [HC2151]   0.471 (inactive)
2   CATTPLARAAAGNASASA [HC1565]   -0.63 (inactive)
3   CAWRCRVARSAGNASASA [FS-897]      5.68 (active)
4   CAPTPCSGSWAGNASASA [HC1839]  -0.934 (inactive)
5  CASHAVVARSAGNASASA [FS-1080]      4.85 (active)
6     CAMEEYSQHLAGNASASA [HC17]  -0.583 (inactive)
7    CAPTDPRRRSAGNASASA [HC215]    0.57 (inactive)
